Values from ChEMBL document CHEMBL1134284

Assay Summary: Ratio of CC50/EC50 was determined
Assay Setup: read-out: TI
The compounds listed here are annotated with their selectivity ratio.
Measured Attribute: selectivity ratio

In [3]: df
Out[3]:
                                        mol  measured_attribute   val
0  CCOC(=O)CCCC=C(c1cc(Cl)c(OC)c(C(=O)OC)c1)c1cc(Cl)c(OC)c(C(=O)OC)c1   selectivity ratio  1600
1  CCOC(=O)CCCC=C(c1cc(Br)c(OC)c(C(=O)OC)c1)c1cc(Br)c(OC)c(C(=O)OC)c1   selectivity ratio  2360

====

Target Or System: Human immunodeficiency virus type 1 reverse transcriptase (Human immunodeficiency virus 1, UniProt Q72547)
The compounds listed here are annotated with their IC50.
Measured Attribute: IC50

                                        mol  measured_attribute       val
0  COC(=O)c1cc(C(=CCCCC(=O)N2CCCCC2)c2cc(Cl)c(OC)c(C(=O)OC)c2)cc(Cl)c1OC                IC50  > 100 µM
1  COC(=O)c1cc(C(=CCCNC(C)=O)c2cc(Cl)c(OC)c(C(=O)OC)c2)cc(Cl)c1OC                IC50  > 100 µM
2  COC(=O)c1cc(C(=CCCN2CCOC2=O)c2cc(Cl)c(OC)c(C(=O)OC)c2)cc(Cl)c1OC                IC50   9.47 µM
3  COC(=O)c1cc(C(=CCCCC(=O)OCC[Si](C)(C)C)c2cc(C)c(OC)c(C(=O)OC)c2)cc(C)c1OC                IC50  > 100 µM

====

Test system: PBL
Assay Summary: Antiviral activity against ROJO virus strain in PBLs (peripheral blood lymphocytes)
Assay type: functional, cell-based
Assay Setup: Homo sapiens
pIC50: −log10 of the molar value.
Measured Attribute: pIC50

In [3]: df
Out[3]:
                                        mol   val
0  CCOC(=O)CCCC=C(c1cc(Cl)c(OC)c(C(=O)OC)c1)c1cc(Cl)c(OC)c(C(=O)OC)c1  6.41

====

The compounds listed here are annotated with their log10 IC50.
System: CCRF-CEM
Assay Summary: Antiviral activity against site directed resistant isolate HIV-1 L74V in CEM cells
Type: functional, cell-based, Homo sapiens
Measured Attribute: log10 IC50 (log10 of the value in nM)

>>> print(df.to_string())
                                        mol  measured_attribute   val
0  COC(=O)CCCC=C(c1cc(Cl)c(OC)c(C(=O)OC)c1)c1cc(Cl)c(OC)c(C(=O)OC)c1          log10 IC50  2.67
1  CCOC(=O)CCCC=C(c1cc(Cl)c(OC)c(C(=O)OC)c1)c1cc(Cl)c(OC)c(C(=O)OC)c1          log10 IC50  2.95
2           Cc1ccnc2c1NC(=O)c1cccnc1N2C1CC1          log10 IC50  1.79
3  CCOC(=O)CCCC=C(c1cc(Br)c(OC)c(C(=O)OC)c1)c1cc(Br)c(OC)c(C(=O)OC)c1          log10 IC50  2.55
4  Cc1cn([C@H]2C[C@H](N=[N+]=[N-])[C@@H](CO)O2)c(=O)[nH]c1=O          log10 IC50  1.60
5  COC(=O)CCCC=C(c1cc(Br)c(OC)c(C(=O)OC)c1)c1cc(Br)c(OC)c(C(=O)OC)c1          log10 IC50  2.45

====

Assay Summary: Antiviral activity against Ba-L monocyte tropic isolate strain in monocyte
Assay type: ADME
Assay Setup: human, monocytes; read-out: TC50 (the source's name)
Measured Attribute: CC50

>>> print(df.to_string())
                                        mol       val
0  Cc1cn([C@H]2C[C@H](N=[N+]=[N-])[C@@H](CO)O2)c(=O)[nH]c1=O  > 200 µM

====

The molecules listed here are annotated with their selectivity ratio.
Assay Summary: Ratio of CC50/EC50 was determined
Type: cell-based
Assay Setup: human, CEM-SS cells; read-out: TI
Measured Attribute: selectivity ratio

>>> print(df.to_string())
                                        mol    val
0  COC(=O)c1cc(C(=CCCCC(=O)OC(C)C)c2cc(Br)c(OC)c(C(=O)OC)c2)cc(Br)c1OC   3.79
1  CCOC(=O)NCCC=C(c1cc(C)c(OC)c(C(=O)OC)c1)c1cc(C)c(OC)c(C(=O)OC)c1   5.34
2  COC(=O)c1cc(C(=CCCCC(=O)N2CCCCC2)c2cc(C)c(OC)c(C(=O)OC)c2)cc(C)c1OC   2.74
3  CCCCCC=C(c1cc(C)c(OC)c(C(=O)OC)c1)c1cc(C)c(OC)c(C(=O)OC)c1    2.5
4  COC(=O)CCCC=C(c1cc(C)c(OC)c(C(=O)OC)c1)c1cc(C)c(OC)c(C(=O)OC)c1     24
5  COC(=O)CCCC=C(c1cc(Br)c(OC)c(C(=O)OC)c1)c1cc(Br)c(OC)c(C(=O)OC)c1  10000
6  COC(=O)NCCC=C(c1cc(Cl)c(OC)c(C(=O)OC)c1)c1cc(Cl)c(OC)c(C(=O)OC)c1   10.2
7  CCCOC(=O)CCCC=C(c1cc(Cl)c(OC)c(C(=O)OC)c1)c1cc(Cl)c(OC)c(C(=O)OC)c1   10.8

====

Assay Summary: Antiviral activity against TEKI virus strain in PBLs (peripheral blood lymphocytes)
Type: ADME, cell-based
Assay Setup: human, read-out: TC50 (the source's name)
Measured Attribute: CC50

>>> df
                                   compound  measured_attribute       val
0  Cc1cn([C@H]2C[C@H](N=[N+]=[N-])[C@@H](CO)O2)c(=O)[nH]c1=O [ZIDOVUDINE]                CC50  > 190 µM

====

System: CCRF-CEM
Assay Summary: Antiviral activity against site directed 4X AZT resistant isolate HIV-1 in CEM cells
Type: functional, cell-based, Homo sapiens
Assay Setup: Homo sapiens, CCRF-CEM
pIC50: −log10 of the molar value.
The compounds listed here are annotated with their pIC50.
Measured Attribute: pIC50

>>> print(df.to_string())
                                   compound  measured_attribute   val
0  CCOC(=O)CCCC=C(c1cc(Br)c(OC)c(C(=O)OC)c1)c1cc(Br)c(OC)c(C(=O)OC)c1               pIC50  7.15
1  CCOC(=O)CCCC=C(c1cc(Cl)c(OC)c(C(=O)OC)c1)c1cc(Cl)c(OC)c(C(=O)OC)c1               pIC50  7.12
2  COC(=O)CCCC=C(c1cc(Cl)c(OC)c(C(=O)OC)c1)c1cc(Cl)c(OC)c(C(=O)OC)c1               pIC50  7.12
3  COC(=O)CCCC=C(c1cc(Br)c(OC)c(C(=O)OC)c1)c1cc(Br)c(OC)c(C(=O)OC)c1               pIC50  7.49
4  Cc1ccnc2c1NC(=O)c1cccnc1N2C1CC1 [NEVIRAPINE]               pIC50  8.10

====

Assay Summary: Antiviral activity against TEKI virus strain in PBLs (peripheral blood lymphocytes)
Assay type: functional, cell-based
Assay Setup: Homo sapiens
pIC50: −log10 of the molar value.
Measured Attribute: pIC50

In [3]: df
Out[3]:
                                        mol  measured_attribute   val
0  COC(=O)CCCC=C(c1cc(Cl)c(OC)c(C(=O)OC)c1)c1cc(Cl)c(OC)c(C(=O)OC)c1               pIC50  6.10
1  COC(=O)CCCC=C(c1cc(Br)c(OC)c(C(=O)OC)c1)c1cc(Br)c(OC)c(C(=O)OC)c1               pIC50  6.05
2  CCOC(=O)CCCC=C(c1cc(Br)c(OC)c(C(=O)OC)c1)c1cc(Br)c(OC)c(C(=O)OC)c1               pIC50  6.00
3  Cc1cn([C@H]2C[C@H](N=[N+]=[N-])[C@@H](CO)O2)c(=O)[nH]c1=O               pIC50  8.70
4  CCOC(=O)CCCC=C(c1cc(Cl)c(OC)c(C(=O)OC)c1)c1cc(Cl)c(OC)c(C(=O)OC)c1               pIC50  6.00
